System: Mycobacterium tuberculosis
METHOD SUMMARY: Antimycobacterial activity against Mycobacterium tuberculosis H37Rv incubated for 2 weeks in presence of 7H9/glucose medium
Format: functional
DETAILS: 336 h
Kindly state MIC for each of the entries shown.
Answers are plain numbers, in µM.

Record excerpt, results attached:
| INPUT SMILES | MIC, µM |
| --- | --- |
| N#Cc1c(N)n[nH]c1-c1ccc2ccn(Cc3ccc(CN4CCCC4)cc3)c2c1 | 25 |
| Nc1cc(-c2ccc3ccn(Cc4ccc(CN5CCCCC5)cc4)c3c2)[nH]n1 | 25 |
| N#Cc1c(N)n[nH]c1-c1ccc2ccn(Cc3ccc(CN4CCOCC4)cc3)c2c1 | 100 |
| CN1CCN(Cc2ccc(Cn3ccc4ccc(-c5[nH]nc(N)c5C#N)cc43)cc2)CC1 | 12.5 |
| Nc1cc(-c2ccc3ccn(Cc4ccc(CN5CCCC5)cc4)c3c2)[nH]n1 | 12.5 |

Quick request: MIC for each listed item, please.
1. CC(C)N1CCN(Cc2ccc(Cn3ccc4ccc(-c5[nH]nc(N)c5C#N)cc43)cc2)CC1
2. N#Cc1c(N)n[nH]c1-c1ccc2ccn(Cc3ccc(CN4CCCCC4)cc3)c2c1

Response:
2.3
25

* * *

Exercise: state measured ΔTm for each of the compounds provided.
Test system: Mycobacteroides abscessus
METHOD SUMMARY: Binding affinity to Mycobacterium abscessus N-terminal His-tagged 3C protease linked full length tRNA (m1-G37) methyltransferase expressed in Escherichia coli BL21(DE3) assessed as change in melting temperature at 100 uM by SYPRO Orange dye based DSF assay
Give bare numbers, in °C.

Some solved entries appear below for comparison.
| INPUT SMILES | ΔTm, °C |
| --- | --- |
| N#Cc1c(N)n[nH]c1-c1ccc2ccn(Cc3ccccc3)c2c1 | 10.1 |
| COc1cccc(COC(=O)c2cn[nH]c2)c1 | 3.5 |
| N#Cc1ccccc1Cn1ccc2ccc(-c3cc(N)n[nH]3)cc21 | 4.4 |

Value sought for every listed compound: ΔTm.
1. Cc1c(N)n[nH]c1-c1ccc2ccn(Cc3ccc(CN4CCCC4)cc3)c2c1
2. Nc1cc(-c2ccc3ccn(Cc4ccccc4)c3c2)[nH]n1
3. N#Cc1cccc(COC(=O)c2cn[nH]c2)c1

Response:
6.1
3.4
2.8

* * *

Kindly supply the reported ΔTm values for the records listed here.
Test system: Mycobacteroides abscessus
METHOD SUMMARY: Binding affinity to Mycobacterium abscessus N-terminal His-tagged 3C protease linked full length tRNA (m1-G37) methyltransferase expressed in Escherichia coli BL21(DE3) assessed as change in melting temperature at 100 uM by SYPRO Orange dye based DSF assay
Mention the unit after the number when you answer.

| COMPOUND | ATTRIBUTE MEASURED | TEST VALUE |
| --- | --- | --- |
| N#Cc1c(N)n[nH]c1-c1ccc2ccn(Cc3ccnc4ccccc34)c2c1 | ΔTm | 10.3 °C |

List the reported ΔTm of each compound below.
1. N#Cc1c(N)n[nH]c1-c1ccc2ccn(Cc3ccncc3)c2c1
2. Nc1cc(-c2ccc3cc[nH]c3c2)[nH]n1
3. Nc1cc(-c2ccc3ccn(Cc4ccc(CN5CCCCC5)cc4)c3c2)[nH]n1
4. CCOC(=O)c1cnn(CC#Cc2cc(COC(=O)c3cn[nH]c3)cc(OC)c2)c1
5. N#Cc1c(N)n[nH]c1-c1ccc2ccn(Cc3cccnc3)c2c1
6. CCOC(=O)c1cn[nH]c1
7. N#Cc1c(N)n[nH]c1-c1ccc2ccn(Cc3ccc(CN4CCOCC4)cc3)c2c1

Response:
11.5 °C
1.1 °C
7.2 °C
9.6 °C
10.5 °C
0.4 °C
12.6 °C

* * *

Kindly state ΔTm for each of the entries shown.
Test system: Mycobacteroides abscessus
METHOD SUMMARY: Binding affinity to Mycobacterium abscessus N-terminal His-tagged 3C protease linked full length tRNA (m1-G37) methyltransferase expressed in Escherichia coli BL21(DE3) assessed as change in melting temperature at 100 uM by SYPRO Orange dye based DSF assay

Illustrative cases are given below, each with its answer.
| COMPOUND | ΔTm |
| --- | --- |
| COC(=O)c1ccc(COC(=O)c2cn[nH]c2)cc1 | 0.9 °C |
| N#Cc1c(N)n[nH]c1-c1ccc2cc[nH]c2c1 | 4.4 °C |

Please go through the list and note ΔTm for each compound.
1. NC(=O)c1ccccc1Cn1ccc2ccc(-c3cc(N)n[nH]3)cc21
2. N#Cc1c(N)n[nH]c1-c1ccc2ccn(Cc3ccccn3)c2c1
3. N#Cc1c(N)n[nH]c1-c1ccc2ccn(Cc3cccnc3O)c2c1
4. O=C(OCc1cccc(OCc2ccccn2)c1)c1cn[nH]c1

Response:
1: 1.4 °C; 2: 8.3 °C; 3: 5.5 °C; 4: 2.5 °C

Dear colleague, could you please provide ΔTm for the compounds listed below?
1. O=C(OCc1ccccc1)c1cn[nH]c1
2. COc1ccc(Cn2ccc3ccc(-c4cc(N)n[nH]4)cc32)cc1
3. COc1cc(COC(=O)c2cn[nH]c2)cc(N2CCCC2)c1

Response:
1. 3.1 °C
2. 3.4 °C
3. 3 °C

For each of the items listed, what is its ΔTm?
1. CN1CCCC(Cn2ccc3ccc(-c4[nH]nc(N)c4C#N)cc32)C1 (racemic)
2. CC(C)N1CCN(Cc2ccc(Cn3ccc4ccc(-c5[nH]nc(N)c5C#N)cc43)cc2)CC1
3. CN1CCN(Cc2ccc(Cn3ccc4ccc(-c5[nH]nc(N)c5C#N)cc43)cc2)CC1
4. CN1CCCCC1Cn1ccc2ccc(-c3[nH]nc(N)c3C#N)cc21 (racemic)
5. COc1cccc(Cn2ccc3ccc(-c4cc(N)n[nH]4)cc32)c1

Response:
10.9 °C
11.9 °C
12 °C
8.8 °C
4.6 °C

Please give ΔTm, item by item, for the list that follows.
1. N#Cc1c(N)n[nH]c1-c1ccc2ccn(Cc3ccc(CN4CCCCC4)cc3)c2c1
2. CCOc1cccc(COC(=O)c2cn[nH]c2)c1
3. O=C(OCc1cccc(OCCc2ccccc2)c1)c1cn[nH]c1
4. Nc1cc(-c2ccc3ccn(Cc4ccccn4)c3c2)[nH]n1
5. O=C(OCc1ccc([N+](=O)[O-])cc1)c1cn[nH]c1
6. N#Cc1c(N)n[nH]c1-c1ccc2c(Cl)cn(Cc3cccnc3)c2c1
7. COc1cc(COC(=O)c2cn[nH]c2)cc(-c2cccnc2)c1
8. N#Cc1c(N)n[nH]c1-c1ccc2ccn(Cc3ccc(CN4CCCC4)cn3)c2c1

Response:
12.6 °C
3.1 °C
3 °C
3.1 °C
0.4 °C
5.8 °C
3.8 °C
12 °C

* * *

Tested on: Mycobacteroides abscessus
METHOD SUMMARY: Binding affinity to Mycobacterium abscessus N-terminal His-tagged 3C protease linked full length tRNA (m1-G37) methyltransferase expressed in Escherichia coli BL21(DE3) assessed as change in melting temperature at 100 uM by SYPRO Orange dye based DSF assay
ATTRIBUTE MEASURED: ΔTm (°C)
Answers are plain numbers, in °C.

Respectfully, I request ΔTm for each entry included below.
1. Nc1cc(-c2ccc3ccn(Cc4ccc(CN5CCCC5)cc4)c3c2)[nH]n1
2. N#Cc1c(N)n[nH]c1-c1ccc2ccn(Cc3ccc(CN4CCCC4)cc3)c2c1
3. N#Cc1c(N)n[nH]c1-c1ccc2ccn(Cc3ccc(O)nc3)c2c1
4. COC(=O)COc1cccc(COC(=O)c2cn[nH]c2)c1

Response:
7
12.9
8.3
2.6

Prompt: What does the record list as ΔTm for `COc1cc(COC(=O)c2cn[nH]c2)cc(Cc2cccnc2)c1` ?
Response: 3
